Each item that follows carries a reported level of expressed mRNA in the presence/in the absence of chemical substance.
Tested on: Metabolism protein genes
Assay: DNA chip mRNA expression in yeast, metabolism protein genes (Table 7)
Assay type: cell-based, Saccharomyces cerevisiae S288C
Conditions: yeast gene YDR050C
measured-property: level of expressed mRNA in the presence/in the absence of chemical substance

molecule | measured-result
Cl[C@H]1[C@H](Cl)[C@@H](Cl)[C@@H](Cl)[C@H](Cl)[C@H]1Cl | 1.5
[Cl][Cd][Cl] | 1.3
Oc1cc(Cl)c(Cl)cc1Cl | 1.7
O=[N+]([O-])c1cc[n+]([O-])c2ccccc12 [(5), 4-nitroquinolin-N-oxide] | 0.9
C=CC=O | 1.2
C[S+](C)[O-] [(15), dimethylsulfoxide] | 1.9

* * *

Test system: Metabolism protein genes
Assay: DNA chip mRNA expression in yeast, metabolism protein genes (Table 7)
Assay type: cell-based, Saccharomyces cerevisiae S288C
Conditions: yeast gene YDR073W
# note: boundary value 1 maps to F; level of expressed mRNA in the presence/in the absence of chemical substance below it maps to T

compound | category
[Cl][Cd][Cl] | T
COc1cc(CNC(=O)CCCCC=CC(C)C)ccc1O [(12), 8-methyl-N-vanillyl-6-nonenamide] | T
O=[N+]([O-])c1cc[n+]([O-])c2ccccc12 [(5), 4-nitroquinolin-N-oxide] | F
CCCCCCCCCCCCOS(=O)(=O)[O-].[Na+] [(18), sodium lauryl sulfate] | F
[Cl][Pb][Cl] | F
CCCCCCCCCCCCc1ccc(S(=O)(=O)[O-])cc1.[Na+] [(17), sodium dodecylbenzosulfonate] | F

* * *

Each item that follows carries a reported level of expressed mRNA in the presence/in the absence of chemical substance.
Tested on: Metabolism protein genes
Assay: DNA chip mRNA expression in yeast, metabolism protein genes (Table 7)
Type: cell-based, Saccharomyces cerevisiae S288C
Settings: yeast gene YOR128C
measured-property: level of expressed mRNA in the presence/in the absence of chemical substance

compound | tgt | measured-result
C[S+](C)[O-] [(15), dimethylsulfoxide] | Metabolism protein genes | 1.6
[Cl][Hg][Cl] | Metabolism protein genes | 2.1
Oc1cc(Cl)c(Cl)cc1Cl | Metabolism protein genes | 1.0
CN(C)C(=S)SSC(=S)N(C)C [(10), Tetramethylthiuram disulfide] | Metabolism protein genes | 0.4

* * *

Test system: Metabolism protein genes
Test: DNA chip mRNA expression in yeast, metabolism protein genes (Table 7)
Format: cell-based, Saccharomyces cerevisiae S288C
Conditions: yeast gene YMR015C
Description: Yeast (Saccharomyces cerevisiae S288C (α SUC2mal mel gap2 CUP1)) were incubated at 25° C. on YPD medium (yeast extract 1%, polypepton 2%, glucose 2%). One of toxic chemical substances was added to the cells at logarithmic growth phase, and the cells were further incubated for two hours. Cells were cultured without any chemical substance in the same condition, and were used as control. Concentrations of the chemical substances were defined to inhibit the growth of the yeast but not lead to death. […]
measured-property: level of expressed mRNA in the presence/in the absence of chemical substance

compound | measured-result
C=CC=O | 0.8
N#Cc1c(Cl)c(Cl)c(Cl)c(C#N)c1Cl | 0.1
C[S+](C)[O-] [(15), dimethylsulfoxide] | 1.2
CCCCC[C@H](O)CC(=O)CCc1ccc(O)c(OC)c1 | 0.4
[Cl][Pb][Cl] | 0.9
